Test: Cytotoxicity against rhesus monkey LLC-MK2 cells
Format: toxicity, cell-based, Macaca mulatta
outcome.measure: CC50 at 48 h (µM)

{"molecule": "O=C(Cn1cccc1[N+](=O)[O-])Nc1cccc(C(F)(F)F)c1", "outcome.measure": "CC50 at 48 h", "reported": 2.1}
{"molecule": "O=C(Cn1ccnc1[N+](=O)[O-])NCc1ccccc1", "outcome.measure": "CC50 at 48 h", "reported": 156}
{"molecule": "COC(=O)/C=C/c1ccc2c(c1)C(C(=O)OC)C(c1ccc(O)cc1)O2 (centres undefined)", "outcome.measure": "CC50 at 48 h", "reported": 49.9}
{"molecule": "COC(=O)/C=C/c1ccc2c(c1)C(C(=O)OC)C(c1ccc(O)c(OC)c1)O2 (centres undefined)", "outcome.measure": "CC50 at 48 h", "reported": 0.86}
